- Target entity: human TLR7 (Homo sapiens, UniProt Q9NYK1)
- Sequence (Q9NYK1 27-1049): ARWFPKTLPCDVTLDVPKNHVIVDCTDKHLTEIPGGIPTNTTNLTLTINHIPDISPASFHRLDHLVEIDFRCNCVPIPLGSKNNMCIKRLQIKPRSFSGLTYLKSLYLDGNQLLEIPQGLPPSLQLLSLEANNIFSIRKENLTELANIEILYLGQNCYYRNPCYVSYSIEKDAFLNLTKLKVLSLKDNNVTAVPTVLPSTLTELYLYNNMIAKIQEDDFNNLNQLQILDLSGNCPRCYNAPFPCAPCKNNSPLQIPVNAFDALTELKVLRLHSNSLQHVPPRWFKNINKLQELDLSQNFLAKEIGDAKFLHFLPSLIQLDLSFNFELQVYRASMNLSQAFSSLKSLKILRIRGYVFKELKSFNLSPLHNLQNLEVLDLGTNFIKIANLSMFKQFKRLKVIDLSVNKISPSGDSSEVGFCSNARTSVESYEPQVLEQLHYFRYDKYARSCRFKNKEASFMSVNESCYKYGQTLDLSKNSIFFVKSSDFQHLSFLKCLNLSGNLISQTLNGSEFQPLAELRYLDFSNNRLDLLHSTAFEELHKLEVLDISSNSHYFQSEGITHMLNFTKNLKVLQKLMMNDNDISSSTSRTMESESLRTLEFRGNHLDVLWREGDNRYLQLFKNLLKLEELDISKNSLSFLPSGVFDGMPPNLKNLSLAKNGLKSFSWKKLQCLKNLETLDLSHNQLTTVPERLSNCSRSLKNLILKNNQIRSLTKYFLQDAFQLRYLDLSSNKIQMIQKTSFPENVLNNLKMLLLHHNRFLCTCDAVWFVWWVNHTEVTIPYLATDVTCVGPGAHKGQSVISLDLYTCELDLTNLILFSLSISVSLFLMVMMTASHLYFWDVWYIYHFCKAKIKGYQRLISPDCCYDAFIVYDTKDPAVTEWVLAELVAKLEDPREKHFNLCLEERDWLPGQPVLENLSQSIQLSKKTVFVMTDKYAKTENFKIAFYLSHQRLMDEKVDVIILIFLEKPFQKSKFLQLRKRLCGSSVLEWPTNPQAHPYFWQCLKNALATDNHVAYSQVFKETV
- Assay name: HEK293-Blue-hTLR-7 cells assay (SEAP reporter)
- Assay type: cell-based
- Run parameters: prodrug; SEAP reporter, 20 hrs; read-out: HEK293-hTLR-7 EC50 (Prodrug)
Observation type: EC50 (µM)
Numbers only, in µM.

[ask] Request: EC50, test system human TLR7 (Homo sapiens, UniProt Q9NYK1), entry CCCN(C)C(=O)n1c(=O)n(Cc2ccc(Br)cc2)c2nc([S@](=N)(=O)CC)nc(N)c21 (single isomer, unassigned)
[reply] 10.9

====

- Assay name: LYSA solubility study
- Assay type: physicochemical
- Run parameters: 0.05 M phosphate buffer, pH 6.5, aqueous buffer, thermodynamic from solid, read-out: LYSA of Active Forms
Observation type: solubility thermodynamic (µg/mL)
Answers are plain numbers, in µg/mL.

molecule="CCCS(=N)(=O)c1nc(N)c2[nH]c(=O)n(Cc3ccccc3)c2n1 (single isomer, unassigned) [Compound 1e-B]" result_number=50

[ask] For the molecule shown here, CCCS(=N)(=O)c1nc(N)c2[nH]c(=O)n(Cc3ccc(C)cc3)c2n1 (single isomer, unassigned) [Compound 36g-A] , give the reported solubility thermodynamic.
[reply] 6
